- System: SIRT1 (Homo sapiens)
- Sequence (Q96EB6 whole entry): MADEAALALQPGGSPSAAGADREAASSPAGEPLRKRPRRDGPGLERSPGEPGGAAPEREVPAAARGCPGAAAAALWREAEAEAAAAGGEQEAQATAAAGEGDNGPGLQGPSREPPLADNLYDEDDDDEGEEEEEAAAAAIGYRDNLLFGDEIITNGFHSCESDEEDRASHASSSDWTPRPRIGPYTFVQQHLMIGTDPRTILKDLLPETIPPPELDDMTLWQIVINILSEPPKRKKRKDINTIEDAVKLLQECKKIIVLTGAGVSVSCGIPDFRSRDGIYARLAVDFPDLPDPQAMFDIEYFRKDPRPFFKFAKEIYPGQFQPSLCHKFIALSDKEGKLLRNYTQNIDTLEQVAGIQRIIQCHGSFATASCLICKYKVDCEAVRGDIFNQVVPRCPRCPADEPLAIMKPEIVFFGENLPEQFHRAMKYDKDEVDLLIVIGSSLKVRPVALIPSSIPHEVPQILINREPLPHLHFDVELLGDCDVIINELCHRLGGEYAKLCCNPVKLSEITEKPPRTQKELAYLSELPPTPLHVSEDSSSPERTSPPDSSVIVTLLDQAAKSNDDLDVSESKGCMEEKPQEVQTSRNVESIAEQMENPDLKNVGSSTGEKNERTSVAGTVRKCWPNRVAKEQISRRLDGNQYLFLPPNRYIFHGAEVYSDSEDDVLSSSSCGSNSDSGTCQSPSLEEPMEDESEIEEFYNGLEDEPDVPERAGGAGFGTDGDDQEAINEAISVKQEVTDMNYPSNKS
- Assay: TAMRA based mass spectrometry assay of SIRT1 activity
- Assay type: biochemical
- Condition parameters: percent maximum fold activation of SIRT1; TAMRA peptide substrate; read-out: TAMRA % Fold Act
Provide the recorded Emax for the entries that follow.

// worked examples, Emax included
| Molecule | Measured value |
| --- | --- |
| O=C(Nc1cnc2ccc(-c3ccccc3C(F)(F)F)nn12)c1cnccn1 [Compound 88] | ≥ 350% |
| O=C(Nc1cccnc1)c1cnc2ccc(-c3cccc(F)c3Cl)nn12 [Compound 183] | < 350% |
| O=C(Nc1ccnc(N2CCCC2)c1)c1cnc2ccc(-c3ccccc3C(F)F)nn12 [Compound 40] | ≥ 350% |
| Cc1csc(NC(=O)c2cnc3ccc(-c4ccccc4C(F)(F)F)nn23)n1 [Compound 152] | ≥ 350% |
| O=C(Nc1cccc(N2CCCC2)n1)c1cnc2ccc(-c3ccccc3C(F)(F)F)nn12 [Compound 22] | ≥ 350% |
| O=C(Nc1cccc(CN2CCOCC2)n1)c1cnc2ccc(-c3c(F)cccc3Cl)nn12 [Compound 160] | ≥ 350% |

Below is a list of molecules. For each, state its recorded Emax.
1. Cc1cc(NC(=O)c2cnc3ccc(-c4ccccc4C(F)(F)F)nn23)cc(C)n1 [Compound 99]
2. O=C(Nc1ccc(F)cn1)c1cnc2ccc(-c3ccccc3C(F)(F)F)nn12 [Compound 110]
3. CS(=O)(=O)c1ccccc1-c1ccc2ncc(C(=O)Nc3ccnc(N4CCC4)c3)n2n1 [Compound 186]
4. O=C(Nc1nccs1)c1cnc2ccc(-c3cccc(N4CCOCC4)c3)nn12 [Compound 9]
5. Cc1cncc(NC(=O)c2cnc3ccc(-c4ccccc4C(F)(F)F)nn23)c1 [Compound 97]
6. O=C(Nc1ccncn1)c1cnc2ccc(-c3ccccc3C(F)(F)F)nn12 [Compound 80]
7. Cc1nc2ccc(-c3ccccc3C(F)(F)F)nn2c1C(=O)Nc1cccc(N2CCOCC2)n1 [Compound 71]

Data returned:
1. ≥ 350%
2. ≥ 350%
3. < 350%
4. < 350%
5. ≥ 350%
6. ≥ 350%
7. ≥ 350%
